Ki values for Adenosine receptor A2a (Rattus norvegicus) compiled from several publications are listed below.
METRIC: Ki (nM)

>>> reported_value("O=C(Cc1ccccc1)Nc1nc(Oc2ccccc2)nc2nc(-c3ccco3)nn12")
136
>>> reported_value("CC(O)(C#Cc1cn2nc(-c3ccco3)nc2c(N)n1)c1ccncc1 (stereo not given)")
25
>>> reported_value("COC1CCN(CC(=O)Nc2cc(-n3nc(C)cc3C)nc(-c3ccc(C)o3)n2)CC1")
1600

###

pKi values for Adenosine receptor A2a (Rattus norvegicus, UniProt P30543) compiled from several publications are listed below.
pKi: −log10 of the molar value.
METRIC: pKi

>>> reported_value("CN1C(=O)c2nc(-c3ccccc3)nc(-c3ccccc3)c2C1=O")
"< 4.00"
>>> reported_value("Nc1nc(-c2ccc(C(F)(F)F)cc2)cn2nc(-c3ccco3)nc12")
"< 6.00"
>>> reported_value("Cc1[nH]c2nc(-c3ccccc3)nc(N[C@@H](C)c3ccccc3)c2c1C")
"< 4.52"
>>> reported_value("Cc1c(C)n([C@@H](C)c2ccccc2)c2nc(-c3cccc(Cl)c3)nc(N)c12")
"< 4.52"
>>> reported_value("C#CCN1CCn2c(nc3c2c(=O)n(C)c(=O)n3C)C1")
"< 6.00"
>>> reported_value("O=C(OCc1ccccc1)N1[C@H]2CC[C@H]1[C@H](Nc1ncnc3c1ncn3[C@@H]1O[C@H](CO)[C@@H](O)[C@H]1O)C2")
"< 4.00"
>>> reported_value("CCO/C(O)=C1\\C(C)=NC(c2ccccc2)=C(C(=O)OCc2ccccc2)C1C#Cc1ccccc1 (centres undefined)")
"< 7.00"
>>> reported_value("CCCOC1=Nc2c(cnn2-c2ccccc2)C2=N[C@H](Cc3ccccc3)CN12")
"< 4.00"
>>> reported_value("Cn1c(=O)c2c(nc3n2CCN(CCc2cc(C(F)(F)F)ccc2F)C3)n(C)c1=O")
"< 6.00"
